Target: c-Met (cytoplasmic domain) (Homo sapiens)
Construct: 10 ng/mL c-Met (cytoplasmic domain, Invitrogen Corporation #PV3143); purchased Invitrogen Corporation PV3143
Assay: c-Met Kinase Assay (same methods as for ALK, with modifications)
Assay type: biochemical
Settings: c-Met kinase inhibition, 1 μM ATP; read-out: cMet Activity
Procedure: Briefly, each 96-well plate was coated with 100 μL/well of 10 μg/mL substrate (phospholipase C-γ) in Tris-buffered saline (TBS). […] The reaction was initiated by adding enzyme (30 ng/ml ALK) and was allowed to proceed at 37° C. for 15 minutes. Detection of the phosphorylated product was performed by adding 100 μl/well of Eu-N1 labeled PT66 antibody (Perkin Elmer # AD0041). Data analysis was performed using ActivityBase (IDBS, Guilford, UK). […]
pIC50: −log10 of the molar value.
compounds and their reported pIC50

Use the examples below as a reference point.
{"COMPOUND": "CCN1CC(=O)Nc2cc(Nc3ncc(Cl)c(Nc4ccccc4S(=O)(=O)C(C)C)n3)c(OC)cc2C1", "READOUT_TYPE": "pIC50", "MEASURED_VALUE": "< 5.00"}
{"COMPOUND": "CNC(=O)c1ccccc1Nc1nc(Nc2ccc3c(c2)C(C)(C)NC(=O)CC3)ncc1Cl", "READOUT_TYPE": "pIC50", "MEASURED_VALUE": "6.00 to 7.00"}
{"COMPOUND": "CN(C)[C@@H]1CCN(S(=O)(=O)c2ccccc2Nc2nc(Nc3ccc4c(c3)NC(=O)CCC4(C)C)ncc2Cl)C1", "READOUT_TYPE": "pIC50", "MEASURED_VALUE": "5.00 to 6.00"}
{"COMPOUND": "CCN1CC(=O)Nc2cc(Nc3ncc(Cl)c(Nc4c(F)cccc4C(=O)NC)n3)ccc2C1", "READOUT_TYPE": "pIC50", "MEASURED_VALUE": "> 7.00"}
{"COMPOUND": "COc1cc2c(cc1Nc1ncc(Cl)c(Nc3ccccc3S(=O)(=O)N3CC[C@H](O)C3)n1)CCN(CC(C)(C)O)CC2", "READOUT_TYPE": "pIC50", "MEASURED_VALUE": "6.00 to 7.00"}

Quick one: pIC50 for COc1cc(N2CCOCC2)ccc1Nc1nc(Nc2cc(F)cc3c2OCCNC3=O)ncc1Cl ?
< 5.00

// query pIC50 value for entry CN1C(=O)OCCc2cc(Nc3ncc(Cl)c(Nc4c(F)cccc4OCC(O)CO)n3)ccc21 (stereo not drawn)
> 7.00

I am curious: what pIC50 value has been reported for CNC(=O)c1ccccc1Nc1nc(Nc2ccc3c(c2)CCC(=O)NC3(C)C)ncc1Cl ?
> 7.00

---

molecular target: c-Met (cytoplasmic domain) (Homo sapiens, UniProt P08581); construct: 10 ng/mL c-Met (cytoplasmic domain, Invitrogen Corporation #PV3143); purchased Invitrogen Corporation PV3143; test: c-Met Kinase Assay (same methods as for ALK, with modifications); type: biochemical; details: c-Met kinase inhibition, 1 μM ATP; read-out: cMet Activity
Sequence (P08581 956-1390 limits assumed): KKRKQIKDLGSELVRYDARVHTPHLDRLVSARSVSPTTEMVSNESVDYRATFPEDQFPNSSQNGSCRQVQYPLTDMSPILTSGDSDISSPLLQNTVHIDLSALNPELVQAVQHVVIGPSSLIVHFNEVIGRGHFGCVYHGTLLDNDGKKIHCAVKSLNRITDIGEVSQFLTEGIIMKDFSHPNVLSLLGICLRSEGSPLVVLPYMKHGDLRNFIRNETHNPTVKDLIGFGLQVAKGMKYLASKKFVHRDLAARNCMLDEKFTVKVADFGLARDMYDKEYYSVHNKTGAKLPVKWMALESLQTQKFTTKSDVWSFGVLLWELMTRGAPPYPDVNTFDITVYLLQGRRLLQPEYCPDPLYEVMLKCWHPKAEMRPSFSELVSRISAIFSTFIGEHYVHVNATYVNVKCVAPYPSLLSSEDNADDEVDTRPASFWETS
IC50 by entry:

{"COMPOUND": "C#CCNC(=O)c1cccc(F)c1Nc1nc(Nc2ccc3c(c2)N(CC)C(=O)C(NC(=O)COC)CC3)ncc1Cl (stereo not drawn)", "IC50": "< 100 nM"}
{"COMPOUND": "CCN1CC(=O)N(CC)c2cc(Nc3ncc(Cl)c(Nc4ccsc4C(=O)NC)n3)ccc2C1", "IC50": "< 100 nM"}
{"COMPOUND": "C#CCNC(=O)c1cccc(F)c1Nc1nc(Nc2ccc3c(c2)N(CCN(C)C)CCCC3(C)C)ncc1Cl", "IC50": "100 to 1000 nM"}
{"COMPOUND": "COc1cc2c(cc1Nc1ncc(Cl)c(Nc3ccccc3S(=O)(=O)C(C)C)n1)CCN(CC(=O)N1CCOCC1)CC2", "IC50": "> 10000 nM"}
{"COMPOUND": "COc1cc2c(cc1Nc1ncc(Cl)c(Nc3ccccc3S(=O)(=O)N3CCC(O)C3)n1)CCN(CC(C)O)CC2 (stereo not drawn)", "IC50": "1000 to 10000 nM"}

Would you kindly share the measured IC50 for CNC(=O)c1ccccc1Nc1nc(Nc2ccc3c(c2)CCOC(=O)N3C)ncc1Cl ?
< 100 nM
